Listing of entries alongside the reported binding signal.
# Tested On: GST-SBP-SLBP (stem-loop binding protein) (Homo sapiens, UniProt Q14493 1-270)
# Experimental Details: targeted RNA Bind-n-Seq; RBNS binding buffer: 25 mM Tris pH 7.5, 150 mM KCl, 3 mM MgCl2, 0.1% Tween, 0.5 mg/mL BSA, 1 mM DTT; 27 nM protein, 750 pM RNA pool; temperature not stated; high values mean tight binding
# Condition Info: protein: recombinant; tags: N-terminal GST and SBP (pGEX6P1-SBP)
Experimental Endpoint: binding signal (log2 fold change)

[[record]]
binder = "consensus (structured_RNA) RNA: GGUCACGUCUCAAUCAACUCCCAAAGGUCUUUCUCAAGACCACCCAUCAACAGCUCGCAGUCAAG"
unit_name = "log2 fold change"
quantitative_result = 3.5

[[record]]
binder = "consensus (structured_RNA) RNA: GGUCACGUCUCAAUCAACUCCCAAAGGCUUUUUUGAAAGCCACCCAUCAACAGCUCGCAGUCAAG"
unit_name = "log2 fold change"
quantitative_result = 2.83

[[record]]
binder = "consensus (structured_RNA) RNA: GGUCACGUCUCAAUCAACUCCCAAAGGUCCUUUUGAGGACCACCCAUCAACAGCUCGCAGUCAAG"
unit_name = "log2 fold change"
quantitative_result = 3.06

[[record]]
binder = "consensus (structured_RNA) RNA: GGUCACGUCUCAAUCAACUCCCAAAGGUCUUUUUCAGGACCACCCAUCAACAGCUCGCAGUCAAG"
unit_name = "log2 fold change"
quantitative_result = 1.9

[[record]]
binder = "consensus (structured_RNA) RNA: GGUCACGUCUCAAUCAACUCCCAAAGGUCCUUUUGAGGGCCACCCAUCAACAGCUCGCAGUCAAG"
unit_name = "log2 fold change"
quantitative_result = 2.63

[[record]]
binder = "consensus (structured_RNA) RNA: GGUCACGUCUCAAUCAACUCCCAAAGGUUUUUUUUAAAACCACCCAUCAACAGCUCGCAGUCAAG"
unit_name = "log2 fold change"
quantitative_result = 2.51

[[record]]
binder = "consensus (structured_RNA) RNA: GGUCACGUCUCAAUCAACUCCCAAAGGUUUUUUUCAAAGCCACCCAUCAACAGCUCGCAGUCAAG"
unit_name = "log2 fold change"
quantitative_result = 2.7

[[record]]
binder = "consensus (structured_RNA) RNA: GGUCACGUCUCAAUCAACUCCCAAAGGCUCUUCUUAGGGCCACCCAUCAACAGCUCGCAGUCAAG"
unit_name = "log2 fold change"
quantitative_result = 2.44

[[record]]
binder = "consensus (structured_RNA) RNA: GGUCACGUCUCAAUCAACUCCCAAAGGUUCUUUUUAGAACCACCCAUCAACAGCUCGCAGUCAAG"
unit_name = "log2 fold change"
quantitative_result = 2.84

[[record]]
binder = "consensus (structured_RNA) RNA: GGUCACGUCUCAAUCAACUCCCAAAGGCCUUUCUUAAGGCCACCCAUCAACAGCUCGCAGUCAAG"
unit_name = "log2 fold change"
quantitative_result = 3.55

